# System: OVCAR-5 ovarian
# test.summary: NCI-60 one-dose screen, 48 h
# protocol.conditions: 10 µM unless noted
# Method: Growth inhibition of the OVCAR-5 human tumor cell line is measured as a screen for anti-cancer activity. Cells are grown in 96 well plates and exposed to the test compound for 48 hours. Compounds are tested at a single concentration, which is 10^-5 M for most compounds. The reported endpoint is percent growth (GI% or GIPRCNT), where numbers from 0 - 100% represent growth inhibition, and numbers from -100% - 0 represent cell death. For example, a value of 40 represents 60% growth inhibition. […]
This is part of a sample that, as a whole, favours compounds with a hit. Of some 83,000 tested, about 20% had one in any assay. Calls of active or inactive are those of the source. Rule for the calls: active = growth percent below 10; inactive = the rest.
Pick from t for active, f for inactive when you respond.

Look over these answered cases.
1. COC(=O)c1ccc(C2Nc3ccc(S(=O)(=O)Nc4ccc(C)c(C)c4)cc3C3OCCC23)cc1 (centres undefined) | f
2. Cc1c(C(=O)OC(=NC2CCCCC2)NC2CCCCC2)sc2c1c(=O)nc1c(C#N)n[nH]n12 | f

**Query** Called result for CCc1ccccc1-n1c(-c2ccc(Cl)cc2)cc(-c2ccc(Cl)cc2)c(C#N)c1=O
**Result** f

**Query** Called result for CC1(C)CC(=O)CC2(C1)N=C(N)Nc1nc3ccccc3n12 (centres undefined)
**Result** f

**Query** Called result for c1csc(-c2c3ccc(=[N+]4CCCCC4)cc-3oc3cc(N4CCCCC4)ccc23)c1
**Result** t

**Query** Called result for COc1ccc(/C=c2\nc3n(-c4ccccc4)c4nc5c6c(sc5c(=N)n4n-3c2=O)CCCC6)cc1
**Result** f

**Query** Called result for S=C(c1ccc2c(c1)OCO2)N1CCN(c2ccccc2Cl)CC1
**Result** f

**Query** Called result for Cc1ccc(NCCN(C)C)c2c(=O)c3ccccc3sc12
**Result** f

**Query** Called result for CN1C(=O)N(C)C2C1NN=c1s/c(=C\c3ccccc3)c(=O)n12 (centres undefined)
**Result** f

**Query** Called result for O=C(Nc1cccc2c(O)c(N=Nc3ccc(S(=O)(=O)Nc4nccs4)cc3)cc(N=Nc3ccc(S(=O)(=O)Nc4nccs4)cc3)c12)C(Cl)Cl
**Result** f

**Query** Called result for CCSC1=NC2C(N(CC)C(=O)N2CC)N1/N=C/C=C/c1ccccc1[N+](=O)[O-] (centres undefined)
**Result** f

**Query** Called result for COc1cc(C2CC(=O)Nc3c2c(C)nn3-c2nc3ccccc3[nH]2)c(OC)c(OC)c1OC (centres undefined)
**Result** f

**Query** Called result for C=CCn1c(C)nc2cc(Nc3nc(Cl)nc4ccccc34)ccc21
**Result** f

**Query** Called result for CNC(=O)c1cc(Oc2cccc3nc(Nc4ccc(F)c(Cl)c4)ccc23)ccn1
**Result** f

**Query** Called result for COc1ccccc1CNCCCN1C(=O)c2ccc3c4c(ccc(c24)C1=O)C(=O)N(CCCNCCCCN)C3=O
**Result** t

* * *

# Test system: RPMI-8226 leukemia
# test.summary: NCI-60 one-dose screen, 48 h (100 = growth as untreated, 0 = no growth, -100 = all killed)
# protocol.conditions: 10 µM unless noted
About 83,000 compounds went through this panel and 20% of them were active in at least one assay; those are over-represented in the sample as a whole. Active and inactive are the calls of the source. Rule for the calls: active = growth percent below 10; inactive = the rest.
Answer each item with its documented growth.

1) Clc1ccc(-c2c3ccc(=[N+]4CCCCC4)cc-3oc3cc(N4CCCCC4)ccc23)cc1 | -41.9% (active)
2) COc1ccc(-c2[nH]c(=S)n(C(CC3(C)NCC(=O)N3n3c(-c4ccccc4)cc(C)nc3=S)c3ccc(OC)cc3)c(=O)c2Br)cc1 (centres undefined) | -7.13% (active)
3) N#C/C(=C\c1ccc(-c2ccccc2F)o1)c1nc(-c2ccco2)cs1 | 80.3% (inactive)
4) Cc1cc(N2CCCC2)nc(NCc2cc(Nc3ccnc4cc(Cl)ccc34)ccc2F)n1 | -44.2% (active)
5) Cc1ccc(C(=NN=C(N)N)c2ccc(C)cc2)cc1 | 1.96% (active)
6) c1ccc(Nc2nc(-c3ccccn3)cs2)nc1 | 14.6% (inactive)
7) COc1ccc(NC(=O)CSc2nnc(-c3cc(-c4ccc(S(N)(=O)=O)cc4)nc4ccccc34)n2-c2ccccc2)cc1 | 57.9% (inactive)
8) CCc1ccccc1NC(=O)/C(C#N)=C/c1ccc(OC)cc1 | 91% (inactive)
9) N#CCN1C(=O)C2C3=C(CCCC3)SC2N=C1CN1CCCC1 (centres undefined) | 50.2% (inactive)
10) C=C1C(=O)O[C@H]2[C@H]1CC/C(COC(=O)C(=O)c1c[nH]c3ccc(OC)cc13)=C\CC[C@@]1(C)O[C@@H]21 | -35.6% (active)

// input: 2 compounds below; output: growth for each
1. N=c1sc(Cc2ccc(Cl)cc2)cn1CC(=O)c1ccc(F)cc1
2. COc1ccc(/C=N\NC(=O)c2cc(-c3ccc(Br)cc3)n(-c3ccc(S(N)(=O)=O)cc3)n2)cc1

**Result**
1. 74.1% (inactive)
2. 61.1% (inactive)

* * *

# Tested on: IGROV1 ovarian
# test.summary: NCI-60 one-dose screen, 48 h
# protocol.conditions: 10 µM unless noted
Compounds without any hit were thinned out: in the full panel of roughly 83,000, 20% have a hit. Calls of active or inactive are those of the source. Rule for the calls: active = growth percent below 10; inactive = the rest.
Pick from active, inactive when you respond.

Look over these answered cases.
1) CC(C)C(=O)Nc1n[nH]c2cc(-c3cccc(NS(=O)(=O)C4CC4)c3)ccc12 | inactive
2) Cc1ccc(/C=C/c2c(C(=O)/C=C/c3ccc(Cl)cc3)c(C)nc3ccccc23)cc1 | active
3) Nc1cc2c3c(cccc3c1)C(=O)N(CCN1CCCC1)C2=O | active

**Query** Called result for CCN(CC)CCCC(C)Nc1c2ccc(Cl)cc2nc2ccc(O)cc12 (stereo unspecified)
**Result** inactive

**Query** Called result for CCCCCCCC/C=C\CCCCCCCCOc1ccccc1CC(=O)NCC[N+](C)(C)C
**Result** inactive

**Query** Called result for Cc1ccc(-c2cc3c(cc2O)C2CCCCC2(N2CCOCC2)O3)cc1 (stereo unspecified)
**Result** inactive

**Query** Called result for Cc1cccc(Cc2cnc(NC(=O)c3ccc4nnsc4c3)s2)c1
**Result** inactive

**Query** Called result for CNC(=O)c1cc(Oc2cccc3nc(Nc4ccc(F)c(Cl)c4)ccc23)ccn1
**Result** inactive

**Query** Called result for O=C1/C(=C2/C=Nc3ccccc32)N(O)c2ccccc21
**Result** inactive

**Query** Called result for CCN(CC)S(=O)(=O)c1cccc(-c2ccc3c(NC(=O)C4CC4)n[nH]c3c2)c1
**Result** inactive

**Query** Called result for O=C(CSc1nccc(Nc2ccc(S(=O)(=O)Nc3nccs3)cc2)n1)c1ccc(F)cc1
**Result** inactive

**Query** Called result for COC(=O)c1c2c(c(C)[n+]([O-])c1C)C(=O)C(NCc1ccc(F)c(Cl)c1)=CC2=O
**Result** active

**Query** Called result for CC/C=C1/C(=O)C=C[C@@H]1C/C=C\CCCC(=O)O
**Result** inactive

* * *

# Test system: OVCAR-5 ovarian
# test.summary: NCI-60 one-dose screen, 48 h
# protocol.conditions: 10 µM unless noted
The panel holds about 83,000 compounds, 20% with a hit somewhere; the sample as a whole holds those more often. Calls of active or inactive are those of the source. How the source made its calls: active means growth percent below 10; inactive means the rest.
Pick from yes (active), no (inactive) when you respond.

**Query** Called result for Clc1cccc(Cl)c1/C=C/c1cc(/C=C/c2c(Cl)cccc2Cl)[nH]n1
**Result** no

**Query** Called result for OC(COc1ccccc1Cl)COc1ccccc1Cl
**Result** no

**Query** Called result for Cc1cccc(Cc2cnc(NC(=O)/C=C/c3ccco3)s2)c1
**Result** no

**Query** Called result for COC1=CC(=O)C[C@@H](C)[C@]12Oc1c(Cl)c(OC)cc(OC)c1C2=O
**Result** no

* * *

# Tested on: NCI-H226 lung
# test.summary: NCI-60 one-dose screen, 48 h (100 = growth as untreated, 0 = no growth, -100 = all killed)
# protocol.conditions: 10 µM unless noted
This is part of a sample that, as a whole, favours compounds with a hit. Of some 83,000 tested, about 20% had one in any assay.
quantity.kind: growth (%)
One number for each entry, in %.

Worked examples follow.
1. COc1cc(C2CC(=O)Nc3c2c(C)nn3-c2nc3ccccc3[nH]2)cc2c1OCC(=O)N2 (stereo not given) | 76.2
2. COc1cc(-c2nc(N3CCN(C)CC3)c3ccccc3n2)cc(OC)c1OC | 66.2
3. COC(=O)c1c2c(c(C)[n+]([O-])c1C)C(=O)C(NCc1ccc(F)c(Cl)c1)=CC2=O | 84.3

// input: 7 molecules below; output: growth for each
1. Cc1ccc(NCCN(C)C)c2c(=O)c3ccccc3sc12
2. COc1ccc(-c2nc3sccn3c2-c2cc(-c3cc(OC)c(OC)c(OC)c3)on2)cc1
3. Cc1ccc(Cl)c(NS(=O)(=O)c2ccc(-c3cnc(C4CC4)o3)cc2)c1
4. C=CCSc1nc2ccccc2cc1/C=N/O
5. COc1ccc2c(c1)O/C(=C\c1cccc(OCC(=O)Nc3nc4ccccc4s3)c1)C2=O
6. C[C@H]1[C@H]2[C@H]3CC[C@@H]4[C@@]5(C)C/C(=C/c6ccco6)C(=O)C(C)(C)[C@@H]5CC[C@@]4(C)[C@]3(C)CC[C@]23CO[C@]1(C)[C@@H](C(=O)/C=C\c1ccco1)C3
7. CC1SC(c2ccc(OCc3ccccc3)cc2)N(NC(=O)C(O)(c2ccccc2)c2ccccc2)C1=O (stereo not given)

**Result**
1: 32.3; 2: 116; 3: 33.8; 4: 77.8; 5: 83.7; 6: 99.6; 7: 84.5
